Where these numbers come from: patent US20220002432A1

- ASSAY_SYSTEM: T1, CD38 on the surface of Daudi cells (human, UniProt P28907 1-300)
- T1 construct: whole, on cells
- RUN_DESCRIPTION: flow cytometry, Daudi cells;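 further: purified antibodies incubated with Daudi cells for 1 h at 4 °C, bound antibody detected by fluorescent secondary antibody and read by flow cytometry as MFI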
MEASURED_ENDPOINT: EC50 (nM)

1. 20B5 (antibody, human IgG1, kappa, V domains shown, Rabbit-human chimeric anti-CD38: rabbit VH and VL on human IgG1 and kappa constant regions) VH: QSLEESGGDLVKPGASLTLTCTASGFSFSSRYWICWVRQAPGKGLEWIACIVAGTTNTYYASWAKGRFTISKTSSTTVTLQMTSLTAADTATYFCAGDPRTGSNVGYFNLWGPGTLVTVSS VL: AQVLTQTPSPVSAAVGGTVTINCQASQSVYNNNYLAWFQQKPGQPPKLLIYSASTLASGVPSRFKGSGSGTQFTLTISEVQSDDAATYYCQAYYSGGIYAFGGGTEVVVKR	0.373
2. 1E2 (antibody, human IgG1, kappa, V domains shown, Rabbit-human chimeric anti-CD38: rabbit VH and VL on human IgG1 and kappa constant regions) VH: QSVEESGGRLVTPGTPLTLTCTVSGIDLNSYAMGWVRQAPGKGLKYIGIMTSGGNIYYANWAKGRFTISKTSTTVDLRITSPTTEDTATYFCAREREFYGGGTSGSRLDLWGQGTLVTVSS VL: AYDMTQTPASVEAAVGGTVTIKCQASQSIYNFLNWYQQKPGQPPKLLIYYASTLAFGVPSRFKGSGSGTEYTLTISGVESADAATYYCQQGWNSGILDNSFGGGTEVVVKR	0.497
3. 23B3 (antibody, human IgG1, kappa, V domains shown, Rabbit-human chimeric anti-CD38: rabbit VH and VL on human IgG1 and kappa constant regions) VH: QSVEESGGRLVTPGTPLTLTCTVSGFSLSNYDMTWVRQAPGRGLEWIGVISSGDNTNYARWAKGRFTISKTSSTTVDLKITSPTTEDTATYFCARILYNKGRYYFTFWGPGTLVTVSS VL: AQVLTQTPSSVSAAVGGTVTINCQSSQSIANSDELAWYQQKPGQPPKLLIYDASTLAPGVPSRFSGSGSGTQFTLTISGVQSDDAATYYCQGTVYDSGWYAAFGGGTEVVVKR	0.325
